Test system: MS2 coat protein
ASSAY NOTES: apparent KD of MS2 coat protein; designed switch direction (-1 OFF switch, 1 ON switch): 1; higher = weaker reporter binding
CONDITION INFO: input ligand: microRNA oligo, concentration not stated
Quick list: apparent KD of MS2 coat protein per entry.
PARAMETER: apparent KD of MS2 coat protein (nM)

{"columns": ["CONSTRUCT SEQUENCE", "PARAMETER", "MEASURED NUMBER"],
 "data": [
  ["GUUAAGAACUAAGGAUAUUGAAUACAUAUGUUUAACAUGAGGAUCACCCAUGUGGGUUGCGGUAUCGAGAAGGUAGAAUAAUAG [Mat - same State NG 2 - JL mod - D93] (Eterna round: R96, puzzle: Same State NG 2)", "apparent KD of MS2 coat protein", 89.8],
  ["CGCAACGGCUGAGGAUAUGUCAACACGGGACGGGCAGAAGGUAGCAACCACCCACAUGAGGAUCACCCAUGUAUCCAAAUUCAC [Eternabot solution 38] (Eterna round: R96, puzzle: Same State NG 1)", "apparent KD of MS2 coat protein", 41.5],
  ["UUGAUGUACUGAGGAUAUCGUGUCGUCUGAUUUGACAUGAGGAUCACCCAUGUGGGAAGUGGUAUCGAGAAGGCAGUUUUCUUA [JR_SSNG2_Sub028] (Eterna round: R96, puzzle: Same State NG 2)", "apparent KD of MS2 coat protein", 351],
  ["UGACACACGGCAGGAUAUCCUUAGCAAAGCUAAGGAGAAGGGCCUCAUGUCGUGGAAACGUGACAUGAGGAUCACCCAUGUUGC [Omei SS(NG)1 Cv7] (Eterna round: R96, puzzle: Same State NG 1)", "apparent KD of MS2 coat protein", 18.1],
  ["GUUACAUGAGGAUCACCCAUGUAUGUGUGGGAGUAAGUGUCUUAGGAUAUCUAUUAUGUAAAUUAAGAGAAGGAAGAUUGUUGU [JMF's solution 17] (Eterna round: R96, puzzle: Same State NG 3)", "apparent KD of MS2 coat protein", 222],
  ["CUCAACAACACAGGAUAUCCAGGGAAAAGAACUGGAGAAGGGUGACCAACAUGAGGAUCACCCAUGUGAUAGCUAGGCUGUCUG [Lararariso] (Eterna round: R96, puzzle: Same State NG 1)", "apparent KD of MS2 coat protein", 191],
  ["GAGUGGAGGAGAGGAUAUACAAUGAUAAUCACAGUAGAAGGUUCUAACAUGAGGAUCACCCAUGUAGGACUAUUCCUGAGAGUU [Parity 50 - Jieux - Same State NG 1] (Eterna round: R96, puzzle: Same State NG 1)", "apparent KD of MS2 coat protein", 9.56],
  ["GCUCGACGUUCGGCCUACAUGAGGAUCACCCAUGUGACUGGGCAGGAUAUCUAAAUGCAGAAUGUAGAGAAGGGCCCGUCGAGC [SameState NG3 #51] (Eterna round: R96, puzzle: Same State NG 3)", "apparent KD of MS2 coat protein", 43.4],
  ["AUAUGAGAAGCAGGAUAUGCGGAGAAGAAAGAAGCAGAAGGGCUUAUGGGACAACAUGAGGAUCACCCAUGUUCUCUGUGAUGA [AK SSNG1-V2-3] (Eterna round: R96, puzzle: Same State NG 1)", "apparent KD of MS2 coat protein", 48.9],
  ["GCCAUCGCAUGAGGAUAUGGCACCGAAACGGUGCCAGAAGGCAUGUCGAAUGACAUGAGGAUCACCCAUGUAGUAUAGAUGGCA [Mat - Same State NG 1 - JL mod - D92] (Eterna round: R96, puzzle: Same State NG 1)", "apparent KD of MS2 coat protein", 571],
  ["AGUCCAGCCUGAGCUGGACAAAUGCAUGUACAUGAGGAUCACCCAUGUUCAUGUACAAGCAUUUUGCUCGUCUUAAA [Sensor for hsa-mir-208a (JL zipper 55 mod - 61 to A)] (Eterna round: R96, puzzle: Sensor for hsa-mir-208a)", "apparent KD of MS2 coat protein", 13.5],
  ["GCGAAGAGGUAAGGAUAUGCAUGGCGGAGACAUGAGGAUCACCCAUGUUGGAGACGAAAUCUAGGGUAGAAGGUACCAGGACGC [AK SSNG2-V2-13] (Eterna round: R96, puzzle: Same State NG 2)", "apparent KD of MS2 coat protein", 64.6],
  ["AGAUCAUGACGAGGAUAUGGAACAUGAGGAUCACCCAUGUAUGUUCCAUAACGCGAACGACGAAUCCAGAAGGCGUCGUGGUCA [JL SSNG2 1.09] (Eterna round: R96, puzzle: Same State NG 2)", "apparent KD of MS2 coat protein", 18.6],
  ["AACAAUCUAUCUGAGGAUAUCAUGAAAAAAACAUGAGGAUCACCCAUGUGCAGGAAAACUGCAUAUGAGAAGGCAGAUAGAUUGA [salish99_SS2_r3_001] (Eterna round: R96, puzzle: Same State 2)", "apparent KD of MS2 coat protein", 490],
  ["ACCCGCGGGCCACAUGAGGAUCACCCAUGUGACCGGUGAUCCAAGGAUAUACGUGUCAUUGACGCGUAGAAGGUGGCCAAAACA [Ersooned] (Eterna round: R96, puzzle: Same State NG 3)", "apparent KD of MS2 coat protein", 22.7],
  ["UGUUGUAUUACAGGAUAUCUAUUAUUUUUAUUUAGAGAAGGGUAUUCACAUGAGGAUCACCCAUGUAUAUACGAGGAAGUUGUG [JMF's solution 6] (Eterna round: R96, puzzle: Same State NG 1)", "apparent KD of MS2 coat protein", 42.7],
  ["AACGGUGCUUGAAAUAGUCACAUGAGGAUCACCCAUGUUAGGCAGGAUAUGUGUCUAAGACGACCGCAGAAGGGCUCAAGCGAU [Eternabot solution 41] (Eterna round: R96, puzzle: Same State NG 3)", "apparent KD of MS2 coat protein", 26.9]
]}

* * *

System: MS2 coat protein
ASSAY NOTES: apparent KD of MS2 coat protein; designed switch direction (-1 OFF switch, 1 ON switch): -1; higher = weaker reporter binding
CONDITION INFO: input ligand: FMN 200 uM
Returns label 1 if the recorded apparent KD of MS2 coat protein is greater than or equal to 0.06 µM, and label 0 otherwise.

{"columns": ["CONSTRUCT SEQUENCE", "TESTED TARGET", "CLASS NAME"],
 "data": [
  ["GUGACUCAGCAGGAUAUACGCGCGAGUGCGUAAGUAGAAGGGUUGACAUGAGGAUCACCCAUGUAGAACCACAC [Eternabot (L2) Solution 18] (Eterna round: R97, puzzle: Exclusion 6)", "MS2 coat protein", "label 0"],
  ["AAUAACAAGCUGAUCCUAAACAUGAGGAUCACCCAUGUGCUCGUCUUGUAAAGUACUAUCACGAAAGUGAUAGUACA [MOD7 of my MOD of Eli's v1-59 (mutation at 11 A to U)] (Eterna round: R97, puzzle: Sensor, turn-off variant 1)", "MS2 coat protein", "label 1"],
  ["AUCAGCUCGUGAGGAUAUAUAUACAUGAGGAUCACCCAUGUAAGAUCAGGCUUCGGCCAAUGUAUAUAGAAGGCACGAGCUGAU [ENG2/11-A3] (Eterna round: R96, puzzle: Exclusion NG 2)", "MS2 coat protein", "label 1"],
  ["UAAUGUAUAUAGGAUAUCUAGCUGGAAACAGCUAGAGAAGGAUGUACAUGAGGAUCACCCAUGUAAAUCAAUAG [Ex6/9-A2] (Eterna round: R97, puzzle: Exclusion 6)", "MS2 coat protein", "label 0"],
  ["CUUUUGUGAGGAUAUUUGUAGUAAAUAAAUAAAAUUACUACUGAGAAGGCACAUGAGGAUCACCCAUGUUCCUC [salish99_ex4_r3_042] (Eterna round: R96, puzzle: Exclusion 4)", "MS2 coat protein", "label 1"],
  ["UGAUCUAGCGGAGGAUAUACAUGAGGAUCACCCAUGUAGAUAACAUGACCGUAGUCGUGUAUUGUGUAGAAGGCCGCUAGAUCU [JL ENG2 3.66] (Eterna round: R96, puzzle: Exclusion NG 2)", "MS2 coat protein", "label 0"],
  ["AAUGUGUGAGGAUAUUAAUUGUAAUUGAAUAGAAUUAUGAUUGAGAAGGCACAUGAGGAUCACCCAUGUUCCAA [JR_Ex4_Sub082] (Eterna round: R97, puzzle: Exclusion 4)", "MS2 coat protein", "label 1"],
  ["GUUGCUACUGAGGAUAUUAUACUACCCGACUGAUAAGAAGGCAGUACAUGAGGAUCACCCAUGUGGGUAGCCAC [Polaris13] (Eterna round: R97, puzzle: Exclusion 6)", "MS2 coat protein", "label 0"]
]}

* * *

System: MS2 coat protein
ASSAY NOTES: apparent KD of MS2 coat protein; designed switch direction (-1 OFF switch, 1 ON switch): -1; higher = weaker reporter binding
CONDITION INFO: input ligand: microRNA oligo, concentration not stated
// Not met strictly below 40 nM in apparent KD of MS2 coat protein; Met otherwise

{"columns": ["CONSTRUCT SEQUENCE", "CLASS NAME"],
 "data": [
  ["UAUUUCAUCUAUGGGAGUAACAUGAGGAUCACCCAUGUAUGUCUUGUUUUUUGUUCGUCUAAGACUUUCUGAUCAGU [JR_SV3TOV1_Sub031] (Eterna round: R96, puzzle: Sensor v3, turn-off variant 1)", "Met"],
  ["AUCGUGCAGCUUUGCUGUACGAGUACAUGAGGAUCACCCAUGUAGGAUAUGGUACGCUUUGCGUGCUAGAAGGAUAUGUGUUAG [EX ENG3 1.43] (Eterna round: R96, puzzle: Exclusion NG 3)", "Not met"],
  ["CGAUAAAGGUGAGGAUAUGAGAAUAGAAAGAAAUCAGAAGGCACACAUGAGGAUCACCCAUGUGAGUUCUCGAGAUUACAUGGU [Prohibition 45 - Jieux - Exclusion NG 1] (Eterna round: R96, puzzle: Exclusion NG 1)", "Not met"],
  ["GUCAGCUCGUGAGGAUAUAUAUAUACAUGAGGAUCACCCAUGUUAGAUCAGCUUCGGCAGUAUAUAUAGAAGGCACGAGCUGAC [ENG2/15-A1] (Eterna round: R96, puzzle: Exclusion NG 2)", "Met"],
  ["UUUUUAUAUGAAGGAUAUACUUAACAUGAGGAUCACCCAUGUGGUGUUGUGAGUGAGUGAGUUUAGUAGAAGGUCAAGGAUUUU [JMF's solution 35] (Eterna round: R96, puzzle: Exclusion NG 2)", "Met"],
  ["GGUCAGAUGGUAGGAUAUCCAUAUCGAGUGACCCUUUCAUAACAUGAGGAUCACCCAUGUCGGUGGGAGAAGGGCCGUACGGCG [salish99_ExNG02_R04_010] (Eterna round: R96, puzzle: Exclusion NG 2)", "Not met"],
  ["UAAUAAUAGCAAGGAUAUGGUUAUUAUAAUAUACCAGAAGGUGCACAUGAGGAUCACCCAUGUUUUAUAAUUUGUAAUUUAAAU [First something] (Eterna round: R96, puzzle: Exclusion NG 1)", "Not met"],
  ["UGUUGUCGCGUAGGAUAUGAGGAUCACCCAUAUAAAGGAUAUGAAAAGAAGGUUCUGAGGAUUACCCAGAAGGACGGGACAACU [pwkr exNG2 2xF5 2xFMN.17] (Eterna round: R96, puzzle: Exclusion NG 2)", "Not met"],
  ["AUUAAACAUGUAGGAUAUGCGUGGCAAAGCUAUGCAGAAGGACAUGAGGAUCACCCAUGUAAAAGCGUCUGCGUACAGAUGCAA [Mat - Exclusion NG 1 - Mod of JL - D86] (Eterna round: R96, puzzle: Exclusion NG 1)", "Not met"]
]}
